From: paper PMC10890569

Let's look at some compounds and their measured IC50.
Target Of Assay: SvelOBP1
Assay Name: Competitive fluorescence binding assay (displacement of 1-NPN)
Cond: 2 μM recombinant SvelOBP1/1-NPN, ligand 0-16 μM, 20 mM Tris-HCl pH7.4; mean ± SEM, three replicates; read-out: IC50 (ligand concentration replacing 50% of initial fluorescence of SvelOBP1/1-NPN mixture)
Provide only the numeric value, understood in µM.

1. OCc1ccccc1 [Phenylmethanol] | 11.3
2. CC1=CCC(C(C)C)C=C1 (centres unmarked) | 11.7
3. CC1=CCC2C(C1)C2(C)C (centres unmarked) [3,7,7-trimethylbicyclo [4.1.0]hept-3-ene] | 14.6
4. CC/C=C\CCOC(=O)C(C)CC (centres unmarked) [[(Z)-hex-3-enyl] 2-methylbutanoate] | 13.4

Please turn your attention to the following entry.
q: Entry CCCCC(=O)OCC [Ethyl pentanoate] has what IC50?
a: 14.1

###

Target Of Assay: SvelOBP1
Assay Name: Binding of fluorescent probe 1-NPN to SvelOBP1 (titration, Scatchard plot)
Cond: 2 μM SvelOBP1 titrated with 1-NPN 0-16 μM, pH7.4; read-out: dissociation constant (Kd) of 1-NPN
Metric Name: Kd (µM)
Provide only the numeric value, understood in µM.

q: Entry `c1ccc(Nc2cccc3ccccc23)cc1` has what Kd?
a: 4.92

###

Target Of Assay: SvelOBP1
Assay Name: Competitive fluorescence binding assay (displacement of 1-NPN)
Cond: 2 μM recombinant SvelOBP1/1-NPN, ligand 0-16 μM, 20 mM Tris-HCl pH7.4; mean ± SEM, three replicates; read-out: IC50 (ligand concentration replacing 50% of initial fluorescence of SvelOBP1/1-NPN mixture)
Metric Name: pIC50
Here pIC50 is given on a logarithmic scale as minus log10 of the concentration in mol/L.

Please review the entries below; each comes with its answer.
1) CCCCOC(C)=O [Butyl acetate] | 4.88
2) C=C(C)C1CC=C(C)CC1 (stereo not drawn) | 4.88
3) CCCCCCCCCCCCCCCC(=O)O | 4.85
4) CCC/C=C/CO [(E)-hex-2-en-1-ol] | 4.81
5) CCOC(=O)C(C)CC (stereo not drawn) [Ethyl 2-methylbutyrate] | 4.95

q: Entry CC/C=C\CCOC(C)=O [[(Z)-hex-3-enyl] acetate] has what pIC50?
a: 4.84

q: Record: `CCc1ccc(C(C)=O)cc1`
a: 4.88

q: Record: C=CC(C)(O)CCC=C(C)C (stereo not drawn)
a: 4.87

###

Target Of Assay: SvelOBP1
Assay Name: Competitive fluorescence binding assay (displacement of 1-NPN)
Cond: 2 μM recombinant SvelOBP1/1-NPN, ligand 0-16 μM, 20 mM Tris-HCl pH7.4; mean ± SEM, three replicates; read-out: IC50 (ligand concentration replacing 50% of initial fluorescence of SvelOBP1/1-NPN mixture)
Let's look at some molecules and their measured IC50.
Provide only the numeric value, understood in µM.

1. C=CC(O)CCCCC (centres unmarked) | 15.2
2. CC12CCC(CC1)C(C)(C)O2 | 13.8
3. CCC/C=C/COC(=O)CCCCC [[(E)-hex-2-enyl] hexanoate] | 14.5
4. CC/C=C\CCOC(=O)CCC [[(Z)-hex-3-enyl] butanoate] | 15.5
5. C=CC(C)=CCC=C(C)C | 11.1

q: Entry `CC(C)=CCC/C(C)=C/CC/C(C)=C/CO` has what IC50?
a: 14.4

q: Record: CC/C=C\CCOC(=O)CC(C)C [[(Z)-hex-3-enyl] 3-methylbutanoate]
a: 14.4

q: Record: CCCC(=O)OCC [Ethyl butyrate]
a: 14.2
